Test system: A-431
Protocol summary: Antiproliferative activity against human A431 cells harboring wild type EGFR after 72 hrs by MTT assay
Assay type: functional, cell-based
Applied conditions: A-431, 72 h
Result type: pIC50
# reply with the number alone; pIC50 is -log10 of concentration in mol/L

Given the molecule Fc1cccc(COc2ccc(Nc3ncnc4cc(OCCCN5CCOCC5)c(OCCCN5CCOCC5)cc34)cc2Cl)c1 , what is its reported pIC50?
5.88

Given the molecule C/C=C/c1ccc(Nc2ncnc3cc(OCCN4CCOCC4)c(OCCN4CCOCC4)cc23)cc1 , what is its reported pIC50?
5.00

Given the molecule CS(=O)(=O)CCNCc1ccc(-c2ccc3ncnc(Nc4ccc(OCc5cccc(F)c5)c(Cl)c4)c3c2)o1 , what is its reported pIC50?
5.32

Given the molecule C/C=C/c1ccc(Nc2ncnc3cc(OCCCN4CCOCC4)c(OCCCN4CCOCC4)cc23)cc1 , what is its reported pIC50?
5.87

* * *

Provide the recorded IC50 for the entries that follow.
System: A-431
Protocol summary: Antiproliferative activity against human A431 cells harboring wild type EGFR after 72 hrs by MTT assay
Assay type: functional, cell-based
Applied conditions: A-431, 72 h
Report the figure in µM without appending any unit label.

Given the compound C#Cc1cccc(Nc2ncnc3cc(OCCCN4CCOCC4)c(OCCCN4CCOCC4)cc23)c1 , what is its reported IC50?
1.56

Given the compound C#Cc1cccc(Nc2ncnc3cc(OCCN4CCOCC4)c(OCCN4CCOCC4)cc23)c1 , what is its reported IC50?
5.41

Given the compound Fc1cccc(COc2ccc(Nc3ncnc4cc(OCCN5CCOCC5)c(OCCN5CCOCC5)cc34)cc2Cl)c1 , what is its reported IC50?
3.62

Given the compound Fc1ccc(Nc2ncnc3cc(OCCN4CCOCC4)c(OCCN4CCOCC4)cc23)cc1Cl , what is its reported IC50?
10.4

Given the compound Fc1ccc(Nc2ncnc3cc(OCCCN4CCOCC4)c(OCCCN4CCOCC4)cc23)cc1Cl , what is its reported IC50?
2.01

* * *

Target or system: Epidermal growth factor receptor (Homo sapiens, UniProt P00533, T790M)
Sequence (P00533 25-1210 T790M limits assumed): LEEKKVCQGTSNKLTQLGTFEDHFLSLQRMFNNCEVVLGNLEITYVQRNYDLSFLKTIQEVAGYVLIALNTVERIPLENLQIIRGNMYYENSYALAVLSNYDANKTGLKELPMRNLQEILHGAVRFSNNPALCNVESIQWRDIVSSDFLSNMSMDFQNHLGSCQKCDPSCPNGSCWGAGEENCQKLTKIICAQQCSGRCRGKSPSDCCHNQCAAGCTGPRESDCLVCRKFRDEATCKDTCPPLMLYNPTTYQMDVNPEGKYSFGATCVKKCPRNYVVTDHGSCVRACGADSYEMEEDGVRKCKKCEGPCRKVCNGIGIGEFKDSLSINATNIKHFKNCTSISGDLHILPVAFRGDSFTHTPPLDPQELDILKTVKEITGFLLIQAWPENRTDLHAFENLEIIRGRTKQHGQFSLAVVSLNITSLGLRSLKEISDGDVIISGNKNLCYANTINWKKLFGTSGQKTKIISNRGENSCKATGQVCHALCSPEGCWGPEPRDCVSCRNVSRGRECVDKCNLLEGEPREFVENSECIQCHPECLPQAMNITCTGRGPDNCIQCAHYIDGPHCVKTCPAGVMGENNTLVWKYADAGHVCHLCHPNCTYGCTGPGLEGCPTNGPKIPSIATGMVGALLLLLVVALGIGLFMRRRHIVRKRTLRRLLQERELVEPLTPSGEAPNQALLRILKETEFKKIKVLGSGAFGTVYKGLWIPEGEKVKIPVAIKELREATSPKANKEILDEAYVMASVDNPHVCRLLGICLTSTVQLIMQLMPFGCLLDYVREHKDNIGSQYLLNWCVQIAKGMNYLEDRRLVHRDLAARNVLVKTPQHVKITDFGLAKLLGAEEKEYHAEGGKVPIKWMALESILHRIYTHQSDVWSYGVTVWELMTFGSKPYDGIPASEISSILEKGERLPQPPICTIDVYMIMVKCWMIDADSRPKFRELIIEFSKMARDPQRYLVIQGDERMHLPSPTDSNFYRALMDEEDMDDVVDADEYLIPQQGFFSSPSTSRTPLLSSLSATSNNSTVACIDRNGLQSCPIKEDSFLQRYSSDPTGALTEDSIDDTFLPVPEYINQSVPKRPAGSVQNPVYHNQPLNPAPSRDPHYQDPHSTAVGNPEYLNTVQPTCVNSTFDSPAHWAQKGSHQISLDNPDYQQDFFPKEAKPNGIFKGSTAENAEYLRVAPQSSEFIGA
Protocol summary: Inhibition of EGFR T790M mutant (unknown origin) preincubated for 10 mins followed by TK substrate-botion addition measured after 1 hr by spectrophotometric method
Result type: pIC50
# reply with the number alone; pIC50 is -log10 of concentration in mol/L

Given the compound Fc1cccc(COc2ccc(Nc3ncnc4cc(OCCCN5CCOCC5)c(OCCCN5CCOCC5)cc34)cc2Cl)c1 , what is its reported pIC50?
8.03

* * *

Result type: IC50 (nM)
Report the figure in nM without appending any unit label.

Test system Epidermal growth factor receptor (Homo sapiens); read-out IC50; what value for Fc1cccc(COc2ccc(Nc3ncnc4cc(OCCCN5CCOCC5)c(OCCCN5CCOCC5)cc34)cc2Cl)c1 ?
7

* * *

Target or system: Epidermal growth factor receptor (Homo sapiens, UniProt P00533, L858R/T790M)
Sequence (P00533 25-1210 T790M/L858R limits assumed): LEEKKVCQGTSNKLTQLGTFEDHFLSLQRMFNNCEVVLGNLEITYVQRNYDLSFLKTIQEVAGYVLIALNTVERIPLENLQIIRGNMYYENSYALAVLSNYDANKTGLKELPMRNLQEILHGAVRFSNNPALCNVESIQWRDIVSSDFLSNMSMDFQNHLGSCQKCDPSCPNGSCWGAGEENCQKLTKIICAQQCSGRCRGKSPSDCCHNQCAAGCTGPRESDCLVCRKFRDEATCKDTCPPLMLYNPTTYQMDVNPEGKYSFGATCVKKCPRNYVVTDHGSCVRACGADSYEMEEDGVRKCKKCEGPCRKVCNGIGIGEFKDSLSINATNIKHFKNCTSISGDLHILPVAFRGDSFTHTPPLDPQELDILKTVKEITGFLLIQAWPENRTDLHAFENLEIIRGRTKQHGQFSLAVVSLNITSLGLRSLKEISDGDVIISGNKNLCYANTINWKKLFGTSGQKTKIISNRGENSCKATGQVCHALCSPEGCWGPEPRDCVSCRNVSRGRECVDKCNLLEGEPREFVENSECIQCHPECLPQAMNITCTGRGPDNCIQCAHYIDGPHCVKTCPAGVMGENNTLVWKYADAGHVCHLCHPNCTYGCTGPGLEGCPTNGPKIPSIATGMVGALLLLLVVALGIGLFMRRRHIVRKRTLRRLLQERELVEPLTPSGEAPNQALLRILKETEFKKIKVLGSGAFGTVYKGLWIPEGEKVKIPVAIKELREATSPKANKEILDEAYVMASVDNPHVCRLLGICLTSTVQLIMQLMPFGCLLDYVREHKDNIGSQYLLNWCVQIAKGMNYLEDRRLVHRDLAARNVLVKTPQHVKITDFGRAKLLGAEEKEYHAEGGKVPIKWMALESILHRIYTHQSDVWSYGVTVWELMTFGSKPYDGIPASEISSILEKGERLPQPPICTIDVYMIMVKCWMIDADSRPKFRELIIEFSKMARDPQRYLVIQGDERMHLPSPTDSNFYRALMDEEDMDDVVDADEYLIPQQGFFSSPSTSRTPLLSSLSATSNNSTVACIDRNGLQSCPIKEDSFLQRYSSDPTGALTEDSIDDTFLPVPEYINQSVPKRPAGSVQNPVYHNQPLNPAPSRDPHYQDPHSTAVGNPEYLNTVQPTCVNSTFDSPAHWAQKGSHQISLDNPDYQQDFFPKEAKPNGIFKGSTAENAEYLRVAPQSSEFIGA
Protocol summary: Inhibition of EGFR L858R/T790M double mutant (unknown origin) using ULight-poly GT as substrate preincubated for 30 mins followed by substrate addition measured after 1 hr by spectrophotometric method
pIC50: −log10 of the molar value.
Provide the recorded pIC50 for the entries that follow.

Given the molecule C/C=C/c1ccc(Nc2ncnc3cc(OCCCN4CCOCC4)c(OCCCN4CCOCC4)cc23)cc1 , what is its reported pIC50?
< 5.70

Given the molecule Fc1cccc(COc2ccc(Nc3ncnc4cc(OCCCN5CCOCC5)c(OCCCN5CCOCC5)cc34)cc2Cl)c1 , what is its reported pIC50?
< 5.70

* * *

System: NCI-H1975
Protocol summary: Antiproliferative activity against human NCI-H1975 cells harboring EGFR L858R/T790M double mutant after 72 hrs by MTT assay
Type: functional, cell-based
Applied conditions: NCI-H1975, 72 h
Result type: pIC50
# reply with the number alone; pIC50 is -log10 of concentration in mol/L

Given the compound Fc1ccc(Nc2ncnc3cc(OCCCN4CCOCC4)c(OCCCN4CCOCC4)cc23)cc1Cl , what is its reported pIC50?
5.35

Given the compound Fc1cccc(COc2ccc(Nc3ncnc4cc(OCCN5CCOCC5)c(OCCN5CCOCC5)cc34)cc2Cl)c1 , what is its reported pIC50?
4.91

Given the compound C#Cc1cccc(Nc2ncnc3cc(OCCCN4CCOCC4)c(OCCCN4CCOCC4)cc23)c1 , what is its reported pIC50?
5.51

Given the compound Fc1cccc(COc2ccc(Nc3ncnc4cc(OCCCN5CCOCC5)c(OCCCN5CCOCC5)cc34)cc2Cl)c1 , what is its reported pIC50?
5.31

Given the compound C/C=C/c1ccc(Nc2ncnc3cc(OCCN4CCOCC4)c(OCCN4CCOCC4)cc23)cc1 , what is its reported pIC50?
4.05
